Target: human μ opiate receptor (Homo sapiens)
Construct: purchased PerkinElmer Life Sciences, Zaventem, Belgium RB-HOM; host or cells: CHO-K1 cells (membrane preparation)
Sequence (P35372 whole entry): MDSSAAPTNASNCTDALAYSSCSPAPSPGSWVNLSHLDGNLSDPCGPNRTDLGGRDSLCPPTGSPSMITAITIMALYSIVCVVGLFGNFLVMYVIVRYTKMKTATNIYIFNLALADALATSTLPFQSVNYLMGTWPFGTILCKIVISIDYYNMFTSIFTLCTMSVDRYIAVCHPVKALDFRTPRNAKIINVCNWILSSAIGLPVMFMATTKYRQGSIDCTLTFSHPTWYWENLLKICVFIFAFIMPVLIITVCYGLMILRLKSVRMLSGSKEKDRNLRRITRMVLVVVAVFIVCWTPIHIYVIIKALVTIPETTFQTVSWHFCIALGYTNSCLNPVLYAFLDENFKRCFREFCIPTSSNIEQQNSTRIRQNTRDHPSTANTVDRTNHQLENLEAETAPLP
Test: Affinity for the human μ opiate receptor ([3H]-naloxone displacement, CHO-K1 receptor membrane preparation, SPA)
Assay type: binding
Settings: test concentration of 1 μM; read-out: μ (binding on the μ opioid receptor, % inhibition)
inhibition at 1 µM: recorded values
Supply the numeric figure in %, leaving out any unit text.

Below, each entry is followed by its recorded inhibition at 1 µM result.
>  <compound>
CN(C)C(c1ccccc1)C1CCC(NC(=O)COCC2CCCCN2S(=O)(=O)c2cccc(Cl)c2Cl)CC1 (centres unmarked) [Example 24]

>  <measurement.units>
%

>  <inhibition at 1 µM>
97

$$$$
>  <compound>
COc1ccc(S(=O)(=O)N2CCCC2COCC(=O)NCCC2CCC(C(c3cccs3)N(C)C)CC2)cc1 (centres unmarked) [Example 77]

>  <measurement.units>
%

>  <inhibition at 1 µM>
96

$$$$
>  <compound>
COc1ccc(S(=O)(=O)N2CCCCC2COCC(=O)NC2CCC(C(c3ccccc3)N(C)C)CC2)cc1OC (centres unmarked) [Example 198]

>  <measurement.units>
%

>  <inhibition at 1 µM>
78

$$$$
>  <compound>
COc1cc(C)c(S(=O)(=O)N2CCC(OCC(=O)NCC3CCC(C(c4ccccc4)N(C)C)CC3)C2)c(C)c1C (centres unmarked) [Example 44]

>  <measurement.units>
%

>  <inhibition at 1 µM>
96

$$$$

Ask: What does the record list as inhibition at 1 µM for CN(C)C(c1ccccc1)C1CCC(CNC(=O)COC2CCCN(S(=O)(=O)c3ccccc3)C2)CC1 (centres unmarked) [Example 114] ?
Reply: 85

Ask: What does the record list as inhibition at 1 µM for CN(C)C(c1cccs1)C1CCC(CCNC(=O)COCC2CCCN(S(=O)(=O)c3ccccc3)C2)CC1 (centres unmarked) [Example 115] ?
Reply: 91

Ask: What does the record list as inhibition at 1 µM for COc1ccc(S(=O)(=O)N2CCCCC2CCOCC(=O)NCC2CCC(C(c3cccs3)N(C)C)CC2)cc1 (centres unmarked) [Example 90] ?
Reply: 95

Ask: What does the record list as inhibition at 1 µM for CN(C)C(c1cccc(F)c1)C1CCC(CNC(=O)COCCN(C)S(=O)(=O)c2c(Cl)cccc2Cl)CC1 (centres unmarked) [Example 72] ?
Reply: 92

----------
B1R Ant. r [10 μM] % Inhibition: recorded values
Target: bradykinin 1 receptor (B1R) of the rat (Rattus norvegicus)
Construct: expressed in transfected cells; host or cells: CHO K1 cells
Sequence (P97583 whole entry): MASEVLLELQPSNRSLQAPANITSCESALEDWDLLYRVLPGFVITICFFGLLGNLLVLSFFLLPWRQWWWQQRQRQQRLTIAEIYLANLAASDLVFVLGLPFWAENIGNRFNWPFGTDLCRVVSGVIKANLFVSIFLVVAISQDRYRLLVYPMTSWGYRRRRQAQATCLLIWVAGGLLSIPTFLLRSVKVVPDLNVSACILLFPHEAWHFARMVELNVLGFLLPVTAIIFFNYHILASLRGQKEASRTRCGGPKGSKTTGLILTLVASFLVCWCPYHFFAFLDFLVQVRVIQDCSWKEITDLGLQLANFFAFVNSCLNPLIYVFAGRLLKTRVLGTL
Assay: Functional investigation on the rat bradykinin 1 receptor (B1R), Ca2+ FLIPR assay in CHO K1 rB1R cells
Type: cell-based
Conditions: B1R antagonism rat; test substance 10 μM; Ca2+ FLIPR, CHO K1 rB1R cells
Supply the numeric figure in %, leaving out any unit text.

Below, each entry is followed by its recorded B1R Ant. r [10 μM] % Inhibition result.
>  <compound>
COc1cc(C)c(S(=O)(=O)N2CCN(CCOCC(=O)NCC3CCC(C(c4ccc(Cl)cc4)N(C)C)CC3)CC2)c(C)c1C (centres unmarked)

>  <target>
bradykinin 1 receptor (B1R) of the rat (Rattus norvegicus)

>  <measurement.units>
%

>  <B1R Ant. r [10 μM] % Inhibition>
13

$$$$
>  <compound>
COc1ccc(S(=O)(=O)N2CCCCC2CCOCC(=O)NCCC2CCC(C(c3ccc(F)cc3)N(C)C)CC2)cc1 (centres unmarked)

>  <target>
bradykinin 1 receptor (B1R) of the rat (Rattus norvegicus)

>  <measurement.units>
%

>  <B1R Ant. r [10 μM] % Inhibition>
56

$$$$
>  <compound>
CN(C)C(c1ccccc1)C1CCC(CNC(=O)COC2CCN(S(=O)(=O)c3ccccc3)CC2)CC1 (centres unmarked)

>  <target>
bradykinin 1 receptor (B1R) of the rat (Rattus norvegicus)

>  <measurement.units>
%

>  <B1R Ant. r [10 μM] % Inhibition>
7

$$$$
>  <compound>
COc1cc(C)c(S(=O)(=O)N2CCCC(OCC(=O)NCC3CCC(C(c4ccc(F)cc4)N(C)C)CC3)C2)c(C)c1C (centres unmarked)

>  <target>
bradykinin 1 receptor (B1R) of the rat (Rattus norvegicus)

>  <measurement.units>
%

>  <B1R Ant. r [10 μM] % Inhibition>
6

$$$$
>  <compound>
CN(C)C(c1ccc(Cl)cc1)C1CCC(CNC(=O)COC2CCCCC2N(C)S(=O)(=O)c2ccc(Cl)c(Cl)c2)CC1 (centres unmarked)

>  <target>
bradykinin 1 receptor (B1R) of the rat (Rattus norvegicus)

>  <measurement.units>
%

>  <B1R Ant. r [10 μM] % Inhibition>
−3

$$$$
>  <compound>
COc1ccc(S(=O)(=O)N(C)CCOCC(=O)NCC2CCC(C(c3ccc(Cl)cc3)N(C)C)CC2)cc1 (centres unmarked)

>  <target>
bradykinin 1 receptor (B1R) of the rat (Rattus norvegicus)

>  <measurement.units>
%

>  <B1R Ant. r [10 μM] % Inhibition>
48

$$$$
>  <compound>
Cc1ccc(S(=O)(=O)N(C)CCOCC(=O)NCCC2CCC(C(c3ccc(Cl)cc3)N(C)C)CC2)cc1 (centres unmarked)

>  <target>
bradykinin 1 receptor (B1R) of the rat (Rattus norvegicus)

>  <measurement.units>
%

>  <B1R Ant. r [10 μM] % Inhibition>
14

$$$$
>  <compound>
CN(C)C(c1ccc(F)cc1)C1CCC(CNC(=O)COCCC2CCN(S(=O)(=O)c3ccccc3)CC2)CC1 (centres unmarked)

>  <target>
bradykinin 1 receptor (B1R) of the rat (Rattus norvegicus)

>  <measurement.units>
%

>  <B1R Ant. r [10 μM] % Inhibition>
20

$$$$

Ask: Fill in the recorded B1R Ant. r [10 μM] % Inhibition for this compound, with bradykinin 1 receptor (B1R) of the rat (Rattus norvegicus) as test system: COc1cc(C)c(S(=O)(=O)N2CCN(CCOCC(=O)NCCC3CCC(C(c4ccc(F)cc4)N(C)C)CC3)CC2)c(C)c1C (centres unmarked)
Reply: −2

Ask: Fill in the recorded B1R Ant. r [10 μM] % Inhibition for this compound, with bradykinin 1 receptor (B1R) of the rat (Rattus norvegicus) as test system: COc1cc(C)c(S(=O)(=O)N2CCC(OCC(=O)NCC3CCC(C(CCc4ccccc4)N(C)C)CC3)C2)c(C)c1 (centres unmarked)
Reply: 104

Ask: Fill in the recorded B1R Ant. r [10 μM] % Inhibition for this compound, with bradykinin 1 receptor (B1R) of the rat (Rattus norvegicus) as test system: COc1cc(C)c(S(=O)(=O)N2CCN(CCOCC(=O)NCCC3CCC(C(c4ccc(Cl)cc4)N(C)C)CC3)CC2)c(C)c1C (centres unmarked)
Reply: −8

Ask: Fill in the recorded B1R Ant. r [10 μM] % Inhibition for this compound, with bradykinin 1 receptor (B1R) of the rat (Rattus norvegicus) as test system: Cc1ccc(S(=O)(=O)N2CCC(OCC(=O)NC3CCC(C(c4ccc(F)cc4)N(C)C)CC3)C2)cc1 (centres unmarked)
Reply: 5

Ask: Fill in the recorded B1R Ant. r [10 μM] % Inhibition for this compound, with bradykinin 1 receptor (B1R) of the rat (Rattus norvegicus) as test system: CN(C)C(c1ccc(F)cc1)C1CCC(CCNC(=O)COC2CCN(S(=O)(=O)c3cccc(C(F)(F)F)c3)C2)CC1 (centres unmarked)
Reply: 22

Ask: Fill in the recorded B1R Ant. r [10 μM] % Inhibition for this compound, with bradykinin 1 receptor (B1R) of the rat (Rattus norvegicus) as test system: COc1ccc(S(=O)(=O)N2Cc3ccccc3CC2COCC(=O)NCCC2CCC(C(c3ccc(F)cc3)N(C)C)CC2)cc1 (centres unmarked)
Reply: 21

Values compiled from patent US8106055B2.
